study-target: T1, EGFR-Fc fusion protein (recombinant EGFR extracellular region-Fc) (human, UniProt P00533 25-645)
T1 construct: extracellular domain; not shown: Fc part supplied by vector pABG1
protocol-description: BLI ForteBio QKe, biotinylated EGFR-Fc on streptavidin sensor, antibody 20 nM; fold reduction of affinity, parent Ame55 = 1;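 also: parent antibody affinity set as 1, with values giving the fold drop in affinity of each mutant antibody relative to that parent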
metric-name: Affinity change (fold)
Expressed in fold, but write only the number.

{"binder": "Ame55 mutant, light chain 88G (antibody, V domains shown, Mutant of Ame55) VH: EVQLVQSGAEVKKPGESLKISCKGSGYSFTSYWIGWVRQMPGKGLEWMGIIYPGDSDTRYSPSFQGQVTISADKSISTAYLQWSSLKASDTAMYYCARGIIYPSNVAVWGQGTLVTVSS VL: SYELTQPPSVSVAPGQTARITCSGDALGDKYASWYQQKPGQAPVLVIYEDSKRPSGIPERFSGSNSGNTATLTISGTQAEDEADYYCGVWDGDWGMPVFGGGTKLTVLG", "unit": "fold", "Affinity change": 3}

Next:
Ask | What value of Affinity change has been reported for the following binder? Ame55 mutant, light chain 26G(C1) (antibody, V domains shown, Mutant of Ame55) VH: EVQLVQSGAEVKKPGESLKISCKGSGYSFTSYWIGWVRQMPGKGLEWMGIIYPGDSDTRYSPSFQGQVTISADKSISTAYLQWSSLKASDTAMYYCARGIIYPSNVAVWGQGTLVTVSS VL: SYELTQPPSVSVAPGQTARITCSGDGLGDKYASWYQQKPGQAPVLVIYEDSKRPSGIPERFSGSNSGNTATLTISGTQAEDEADYYCSVWDGDWGMPVFGGGTKLTVLG
Reply | 0.5
